measurement_target: human M1 receptor (hCHRM1) (Homo sapiens, UniProt P11229)
Sequence (P11229 whole entry): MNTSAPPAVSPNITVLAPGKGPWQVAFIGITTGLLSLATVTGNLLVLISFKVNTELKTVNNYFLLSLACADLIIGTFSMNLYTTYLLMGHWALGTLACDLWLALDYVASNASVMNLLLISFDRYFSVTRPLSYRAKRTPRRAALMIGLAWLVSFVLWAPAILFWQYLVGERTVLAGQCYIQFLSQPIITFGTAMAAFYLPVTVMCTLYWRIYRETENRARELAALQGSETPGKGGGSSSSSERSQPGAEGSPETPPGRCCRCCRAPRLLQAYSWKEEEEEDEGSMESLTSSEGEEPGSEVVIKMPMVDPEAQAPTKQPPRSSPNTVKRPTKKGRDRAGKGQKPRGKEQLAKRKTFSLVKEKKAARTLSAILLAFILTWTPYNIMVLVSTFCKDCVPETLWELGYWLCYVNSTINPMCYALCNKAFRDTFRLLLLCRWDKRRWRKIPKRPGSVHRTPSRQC
method_description: Measurement of M1 receptor positive allosteric modulator (M1PAM) activity, calcium fluorescence in CHO-K1 cells;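 further: potency reported as IP value in nM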
condition_label: inflection point in the concentration-dependent curve; acetylcholine at EC20 (final 0.6-0.8 nM); CHO-K1 cells expressing human M1; Fluo-4, FLIPRtetra; read-out: IP value
measured_parameter: EC50 (nM)

>  <smi>
Cn1cc(-c2ccc(CN3Cc4ncnc(OCC(F)(F)F)c4C3=O)cc2)nn1

>  <unit_string>
nM

>  <assay_result>
61

$$$$
>  <smi>
Cn1cc(-c2ccc(CN3Cc4ncnc(OCC(C)(F)F)c4C3=O)cc2)cn1

>  <unit_string>
nM

>  <assay_result>
19

$$$$
>  <smi>
Cc1nn(C)cc1-c1ccc(CN2Cc3ncnc(OCC(C)(C)F)c3C2=O)cc1

>  <unit_string>
nM

>  <assay_result>
17

$$$$
>  <smi>
CCn1cc(-c2ccc(CN3Cc4ncnc(OCC(C)(C)F)c4C3=O)c(F)c2)cn1

>  <unit_string>
nM

>  <assay_result>
6.7

$$$$
>  <smi>
Cc1nn(C)cc1-c1ccc(CN2Cc3ccnc(OCC(C)(F)F)c3C2=O)c(F)c1

>  <unit_string>
nM

>  <assay_result>
16

$$$$
>  <smi>
Cn1cc2cc(-c3ccc(CN4Cc5ccnc(OCC(C)(F)F)c5C4=O)cc3)ccc2n1

>  <unit_string>
nM

>  <assay_result>
51

$$$$
>  <smi>
Cc1nn(C)cc1-c1ccc(CN2Cc3ncnc(OCC(F)F)c3C2=O)cc1

>  <unit_string>
nM

>  <assay_result>
23

$$$$
>  <smi>
CCn1cc(-c2ccc(CN3Cc4ccnc(OCC(F)F)c4C3=O)cc2)cn1

>  <unit_string>
nM

>  <assay_result>
66

$$$$
